- system.under.test: Fructose-bisphosphate aldolase (Giardia intestinalis (strain ATCC 50803 / WB clone C6))
- assay.name: qHTS Assay for Inhibitors of Fructose-1,6-bisphosphate Aldolase from Giardia Lamblia; further: nearly all actives have a fitted effect of over 55% in size
- condition.summary: purified Giardia FBPA; series mostly up to 59.6 µM
Among all 290,000 compounds or so, about 2,100 (0.72%) were called active. Inconclusive results (about 4%) are left out. The call rests on the fitted dose curve; in most records, active means well fitted inhibition curve with a large enough effect; inconclusive means small, poorly fitted or top-dose-only effect, or effect the other way; inactive means flat fitted curve, though single readings scatter. Only a selection was taken, and actives are over-represented in it overall.
Mark one answer only. Choices: active, inactive

Take a look at these entries with their results.
[[record]]
molecule = "O=C(O)c1c(NC(=O)N2CCCC2)sc2c1CCCC2"
system_under_test = "Fructose-bisphosphate aldolase (Giardia intestinalis (strain ATCC 50803 / WB clone C6))"
cat = "inactive"

[[record]]
molecule = "O=C(CN1CCCCCC1)Nc1c(Cl)cc(Cl)cc1Cl"
system_under_test = "Fructose-bisphosphate aldolase (Giardia intestinalis (strain ATCC 50803 / WB clone C6))"
cat = "inactive"

[[record]]
molecule = "Cc1cccc2c(CCN)c[nH]c12"
system_under_test = "Fructose-bisphosphate aldolase (Giardia intestinalis (strain ATCC 50803 / WB clone C6))"
cat = "inactive"

[[record]]
molecule = "Cc1cc(C)c2c(=O)[nH]c(SCC(=O)Nc3ccc(Br)cc3)nc2n1"
system_under_test = "Fructose-bisphosphate aldolase (Giardia intestinalis (strain ATCC 50803 / WB clone C6))"
cat = "active"

[[record]]
molecule = "CCOC(=O)c1c(-c2ccccc2)oc2cc(Br)c(O)c(C=O)c12"
system_under_test = "Fructose-bisphosphate aldolase (Giardia intestinalis (strain ATCC 50803 / WB clone C6))"
cat = "inactive"


-- ask What was the test verdict on "O=C(Cc1c[nH]c2ccccc12)OCCOC(=O)Cc1c[nH]c2ccccc12" ?
-- reply inactive

-- ask I would be grateful if you could indicate the recorded call for "CN(Cc1ccccc1)C(=O)c1cccc(C(=O)N(C)Cc2ccccc2)c1" .
-- reply inactive

-- ask Per the assay record, what outcome was assigned to "O=[N+]([O-])c1ccc2nc(-c3ccccn3)[nH]c2c1" ?
-- reply active

-- ask // param item: "CCCOc1ccc(-c2c(C(=O)N/N=C/c3ccco3)nnn2-c2nonc2N)cc1" ; yields the recorded call
-- reply inactive

-- ask State the result this test recorded for "CCN(CC(=O)Nc1ccc(Cl)c(S(=O)(=O)N(C)C)c1)Cc1nc2ccccc2c(=O)[nH]1" .
-- reply inactive

-- ask Called result for "C=CCn1c(SCc2ccccc2)nc2c1c(=O)[nH]c(=O)n2C"
-- reply inactive

-- ask Test call, this molecule: "Cc1ccc(NC(=S)NCCc2ccc(Cl)cc2)c(C)c1"
-- reply inactive

-- ask What did this assay record as the result for "CCN(CC(=O)Nc1cccc(S(N)(=O)=O)c1)Cc1nc2ccccc2c(=O)[nH]1" ?
-- reply inactive

-- ask Hi team, can someone confirm the assay call for "Cc1cc(C)c(NC(=O)CN2CCCCCC2)c(C)c1" ?
-- reply inactive

-- ask Please state the recorded outcome for this molecule: CC1C(=O)N(Cc2ccccc2)c2ccccc2N1C(=O)c1ccccc1 (configuration not stated)
-- reply inactive

###

- system.under.test: Fructose-bisphosphate aldolase (Giardia intestinalis (strain ATCC 50803 / WB clone C6)) (UniProt A8B2U2)
- Sequence (A8B2U2 whole entry, looked up): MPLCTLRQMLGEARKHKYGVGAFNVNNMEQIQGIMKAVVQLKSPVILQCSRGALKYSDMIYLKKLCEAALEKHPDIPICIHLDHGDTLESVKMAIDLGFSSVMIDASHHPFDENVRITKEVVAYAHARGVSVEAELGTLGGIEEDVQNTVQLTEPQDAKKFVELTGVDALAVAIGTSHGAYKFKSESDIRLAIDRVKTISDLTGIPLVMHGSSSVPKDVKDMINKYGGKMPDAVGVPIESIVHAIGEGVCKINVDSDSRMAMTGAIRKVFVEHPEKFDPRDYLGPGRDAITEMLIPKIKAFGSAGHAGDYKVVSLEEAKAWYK
- assay.name: qHTS Assay for Inhibitors of Fructose-1,6-bisphosphate Aldolase from Giardia Lamblia; further: nearly all actives have a fitted effect of over 55% in size
- condition.summary: purified Giardia FBPA; series mostly up to 59.6 µM
Among all 290,000 compounds or so, about 2,100 (0.72%) were called active. About 4% were inconclusive and are not listed. The call rests on the fitted dose curve; in most records, active means well fitted inhibition curve with a large enough effect; inconclusive means small, poorly fitted or top-dose-only effect, or effect the other way; inactive means flat fitted curve, though single readings scatter. Shown is part of a subset that was picked to be rich in actives.
Select the matching outcome among active, inactive

-- ask In this assay, the call recorded for "COc1ccc2oc(=O)c(C(=O)NCc3ccccn3)cc2c1" was what?
-- reply inactive

-- ask Hi team, can someone confirm the assay call for "O=C(CNC(=O)COc1ccccc1)NCCc1ccccn1" ?
-- reply inactive

-- ask Could you kindly confirm the outcome this assay logged for CCOC(=O)C1(Cc2cccc(OC)c2)CCCN(C(=O)CCSC)C1 (configuration not stated) ?
-- reply inactive

-- ask Answer briefly: the call reported for "CCn1c(SCC(=O)N/N=C/c2ccccc2OCC(=O)O)nnc1-c1ccc(C(C)(C)C)cc1" in this assay.
-- reply inactive

-- ask Which result was noted for this molecule in the test: "Oc1ccc2ccccc2c1N=Nc1nccs1"
-- reply active

-- ask Given "O=C(c1cc(COc2ccc(F)cc2F)on1)N1CCOCC1" , state the outcome it received in this test.
-- reply inactive

-- ask Outcome? "COc1ccccc1-c1nnc(NC(=O)c2cccc(N3C(=O)CCC3=O)c2)o1"
-- reply inactive

-- ask # fetch the recorded call for "Cc1ccc(/C=N/NC(=O)CNC(=O)COc2ccccc2)o1" here
-- reply inactive

-- ask Please indicate how the test categorized "Cc1noc(C)c1-c1ccc2ncnc(NCc3ccc4[nH]ccc4c3)c2c1" .
-- reply inactive

-- ask Just curious, what result did "COC(=O)[C@@H]1C[C@@]2(O)[C@H](O)[C@H](O)[C@H](O)C[C@H]2N1CC1CCCCC1" get here?
-- reply inactive

###

- system.under.test: Fructose-bisphosphate aldolase (Giardia intestinalis (strain ATCC 50803 / WB clone C6))
- assay.name: qHTS Assay for Inhibitors of Fructose-1,6-bisphosphate Aldolase from Giardia Lamblia; further: nearly all actives have a fitted effect of over 55% in size
- condition.summary: purified Giardia FBPA; series mostly up to 59.6 µM
- Text: Assay Provider: Osnat Herzberg, University of Maryland The objective of this project is to obtain compounds that inhibit Giardia lamblia growth. […] A glyceraldehyde-3-phosphate dehydrogenase/triose phosphate isomerase/NAD/arsenate coupled assay was adapted to the 1536-well HTP format for use in the primary screen. This was done by coupling it to a diaphorase/resazurin/resorufin reaction that can be monitored by fluorescence (excitation, 544 nm; emission, 590 nm). […]
Out of some 290,000 compounds screened, about 2,100 (0.72%) were called active. Inconclusive results (about 4%) are left out. Calls follow the shape of the dose curve; as a rule, active = well fitted inhibition curve with a large enough effect; inconclusive = small, poorly fitted or top-dose-only effect, or effect the other way; inactive = flat fitted curve, though single readings scatter. The sample holds actives, similar compounds and a random draw of the others, so the mix is not that of the screen.
Select the correct class. Options are active, inactive and nothing else.

[[record]]
compound = "Cn1c(SCC(=O)N/N=C/c2ccc(O)c(O)c2)nc2ccccc21"
cat = "inactive"

[[record]]
compound = "Cc1c(Cl)cccc1NC(=S)NCC(O)c1ccccc1 (stereo unspecified)"
cat = "inactive"

[[record]]
compound = "COc1ccc(-c2cn[nH]c2-c2ccc(OC)cc2)cc1"
cat = "inactive"


-- ask Could you please tell me the result logged for "COc1ccc(OCc2cc(C(=O)NCC3(C)COC3)no2)c(Cl)c1" in this assay?
-- reply inactive

-- ask Identify the outcome logged in this assay for the compound shown: "Oc1[nH]c2ccc(Br)cc2c1N=Nc1nn[nH]n1"
-- reply active

-- ask What classification did N#CC1=C(N)Oc2n[nH]c(CSc3ccccc3)c2C12C(=O)Nc1ccccc12 (stereo unspecified) end up with in this test?
-- reply inactive

###

- system.under.test: Fructose-bisphosphate aldolase (Giardia intestinalis (strain ATCC 50803 / WB clone C6)) (UniProt A8B2U2)
- assay.name: qHTS Assay for Inhibitors of Fructose-1,6-bisphosphate Aldolase from Giardia Lamblia; further: nearly all actives have a fitted effect of over 55% in size
- condition.summary: purified Giardia FBPA; series mostly up to 59.6 µM
Among all 290,000 compounds or so, about 2,100 (0.72%) were called active. Another 4% or so got no clear call; they are omitted. Calls follow the shape of the dose curve; as a rule, active = well fitted inhibition curve with a large enough effect; inconclusive = small, poorly fitted or top-dose-only effect, or effect the other way; inactive = flat fitted curve, though single readings scatter. The list comes from a sample in which actives are over-represented; it also holds close analogues and randomly drawn compounds.
// classify into Yes = active, No = inactive

Recorded results for 6 compounds are shown here.
[[record]]
compound = "Cc1ccc(NS(=O)(=O)c2ccc3c(c2)oc(=O)n3C)c(C)c1"
cat = "No"

[[record]]
compound = "CCOCCOC(=O)C(C)Oc1ccc(Oc2ncc(C(F)(F)F)cc2Cl)cc1 (stereo unspecified)"
cat = "No"

[[record]]
compound = "Cc1nnc(N/N=C/c2ccccn2)[nH]c1=O"
cat = "Yes"

[[record]]
compound = "COc1ccc(CCNCc2c(-c3ccccc3)n(C)c3ccccc23)cc1"
cat = "No"

[[record]]
compound = "COc1ccccc1CCNS(=O)(=O)c1cn(C)nc1C"
cat = "No"

[[record]]
compound = "Cc1ccccc1N1CCN(CCCN2C(=O)C3CCCCN3C2=O)CC1 (stereo unspecified)"
cat = "No"


-- ask Hey, what did the test say about Cc1ccc(SCC(CC(C)C)N2CCN(CCc3ccccc3)CCC2=O)cc1 (stereo unspecified) ?
-- reply No

-- ask Which result was noted for this compound in the test: "CCOc1ccc(-n2c(SCC(=O)Nc3cc(C(=O)O)ccc3Cl)nc3ccccc3c2=O)cc1"
-- reply No

-- ask Outcome? "O=C(Nc1ccccc1Cl)Nc1cccc2cccnc12"
-- reply No

-- ask Record lookup: outcome of this test for "CC(=O)OCCN(CCCn1c(-c2ccncc2)nc2ccccc21)c1nc(-c2ccc(C)cc2)cs1" ?
-- reply No

-- ask Hi, sorry to bother you, what did the test record for "Cc1ccccc1Nc1nnc(C)c(=O)[nH]1" ?
-- reply No

###

- system.under.test: Fructose-bisphosphate aldolase (Giardia intestinalis (strain ATCC 50803 / WB clone C6)) (UniProt A8B2U2)
- assay.name: qHTS Assay for Inhibitors of Fructose-1,6-bisphosphate Aldolase from Giardia Lamblia; further: nearly all actives have a fitted effect of over 55% in size
- condition.summary: purified Giardia FBPA; series mostly up to 59.6 µM
The whole screen tested about 290,000 compounds, of which about 2,100 (0.72%) were called active. Another 4% or so got no clear call; they are omitted. The call rests on the fitted dose curve; in most records, active means well fitted inhibition curve with a large enough effect; inconclusive means small, poorly fitted or top-dose-only effect, or effect the other way; inactive means flat fitted curve, though single readings scatter. The entries come from a sample that favours actives as a whole.
Allowed answers: active, inactive

[[record]]
molecule = "COc1c(O)c2c(=O)cc(OC)c3c4c(OC)cc(=O)c5c(O)c(OC)c6c(c(c1C[C@@](C)(O)[C@H]6C(C)=O)c23)c54"
cat = "inactive"


-- ask Record lookup: outcome of this test for "CCc1ccc2c(c1)C(c1ccc([N+](=O)[O-])cc1)=NNC(c1ccccc1)=N2" ?
-- reply inactive

-- ask Please share the test call associated with "Cc1ccc(N(Cc2cc(=O)[nH]c3ccccc23)C(=O)CCl)cc1" .
-- reply inactive

-- ask Recorded test call requested for "Cc1nn(C)cc1N1C(=O)c2cccc3c(N)ccc(c23)C1=O"
-- reply inactive

-- ask What was the test verdict on "Cc1ccc(Cl)c(OCC(=O)N2CCc3ccccc3C2)c1" ?
-- reply inactive

-- ask Which outcome was entered for the molecule "O=C(Nc1cccc(Cl)c1)c1cc(S(=O)(=O)N2CCCCC2)c[nH]1" in this test?
-- reply inactive

-- ask Dear colleague, could you share the recorded outcome for "Cc1cc2[nH]ncc2cc1NC(=S)NC(=O)c1ccccc1" when you have a moment?
-- reply inactive

-- ask # lookup: test call for "CN1C(=O)c2cccc3c(N)ccc(c23)C1=O"
-- reply inactive

-- ask Returns: the outcome recorded for "O=S(=O)(c1ccc(NC(=S)NN=C(C2CC2)C2CC2)cc1)N1CCOCC1" in this assay.
-- reply active

-- ask # lookup: test call for "CCN1C(=O)c2cccc3c(N)ccc1c23"
-- reply active

-- ask How did this test come out for CO/N=C(\C(=O)N[C@@H]1C(=O)N2C(C(=O)O)=C(COC(C)=O)CS[C@H]12)c1csc(N)n1 (stereo in doubt) ?
-- reply inactive

-- ask Which outcome was entered for the molecule Cc1nnc(SCC2=C(C(=O)O)N3C(=O)C(NC(=O)Cn4nc(C)c(Cl)c4C)C3SC2)s1 (stereo not given) in this test?
-- reply active

-- ask Which result was noted for this molecule in the test: CCOc1ccccc1NC(=O)C1CCCN(S(=O)(=O)c2ccccc2)C1 (stereo not given)
-- reply inactive

-- ask Recorded test outcome, item "COc1ccc(C(=O)CC(=O)c2ccc(C)cc2)c(O)c1"
-- reply inactive

-- ask Recorded test outcome, item "Cn1c(CCN2CCCC2)nc2cc(NS(=O)(=O)c3ccccc3)ccc21"
-- reply inactive

-- ask Tell me the assay call for "CCCNC(=O)c1ccc(N2CCC3(CC2)CC(c2ccc(Cl)cc2)=NO3)c([N+](=O)[O-])c1" please.
-- reply inactive

-- ask Would you mind telling me which call this test gave "Cc1cc(C)nc(N/N=C/c2ccc([N+](=O)[O-])o2)n1" ?
-- reply active

-- ask Please let me know the test result on file for COc1cc(CN2CC(C)CC(C)C2)cc([N+](=O)[O-])c1O (stereo not given) .
-- reply inactive

-- ask Answer briefly: the call reported for "Cc1ccc(-c2nc3ccccc3[nH]c2=O)cc1" in this assay.
-- reply inactive
